condition: Ebola virus entry assay, green fluorescence channel
Results with a measured potency or affinity are listed apart.
reportedMetric: efficacy (%)

>>> df
                                   compound  endpointresult
0  CCN(CC)CCCC(C)Nc1ccnc2cc(Cl)ccc12 (stereo unspecified)            34.3
1  C[C@@H](O)[C@H]1C(=O)N2C(C(=O)O)=C(S[C@@H]3CN[C@H](CNS(N)(=O)=O)C3)[C@H](C)[C@H]12            41.5
2  O=C1c2cccc3c2[C@H](CCC3)CN1[C@@H]1CN2CCC1CC2            37.7
3                         CN(C)C(=N)N=C(N)N             -14
4               CN(C)c1nc(N(C)C)nc(N(C)C)n1            14.8
5  O=C1N=C(O)CN1/N=C/c1ccc(-c2ccc([N+](=O)[O-])cc2)o1              24

---

As shown below, each of these compounds has a reported activity change, negative = inhibition value.
assayComment: Primary qHTS to identify inhibitors of SARS-CoV-2 cell entry (AID 1645846)
condition: SARS-CoV-2 pseudovirus cell entry assay, luminescence; at 57.1 µM (top of the series) unless noted
Inconclusive results are not listed.
reportedMetric: activity change, negative = inhibition (%)

>>> df
                                    compound                          reportedmetric  endpointresult
 0  C[C@@H](c1ncncc1F)C(O)(Cn1cncn1)c1ccc(F)cc1F (some centres undefined)  activity change, negative = inhibition           -1.38
 1                      Nc1ccc(O)c(C(=O)O)c1  activity change, negative = inhibition            2.37
 2  CC(C)(C)NC(=O)[C@@H]1CN(Cc2cccnc2)CCN1C[C@@H](O)C[C@@H](Cc1ccccc1)C(=O)N[C@H]1c2ccccc2C[C@H]1O  activity change, negative = inhibition            4.24
 3  Cc1ccsc1C(=CCCN1CCC[C@@H](C(=O)O)C1)c1sccc1C  activity change, negative = inhibition           -13.3
 4           Cc1ccc(C)c(OCCCC(C)(C)C(=O)O)c1  activity change, negative = inhibition           -8.37
 5                           Oc1cccc2cccnc12  activity change, negative = inhibition           -23.4
 6  CC[C@@H]([C@H](C)O)n1ncn(-c2ccc(N3CCN(c4ccc(OC[C@@H]5CO[C@@](Cn6cncn6)(c6ccc(F)cc6F)C5)cc4)CC3)cc2)c1=O  activity change, negative = inhibition           -23.1
 7                                  NN=C(N)N  activity change, negative = inhibition             4.5
 8   Cc1cccc(C)c1OCC(C)N (centres undefined)  activity change, negative = inhibition          -0.301
 9  CC(=O)O[C@]1(C(C)=O)CC[C@H]2[C@@H]3C=C(C)C4=CC(=O)CC[C@]4(C)[C@H]3CC[C@@]21C  activity change, negative = inhibition           -12.1
10  CCn1cc(C(=O)O)c(=O)c2cc(F)c(N3CCNCC3)cc21  activity change, negative = inhibition           -15.8
11  COc1cccc2c1C(=O)c1c(O)c3c(c(O)c1C2=O)C[C@@](O)(C(=O)CO)C[C@@H]3O[C@H]1C[C@H](N)[C@H](O)[C@H](C)O1  activity change, negative = inhibition           -93.7
12                    Cc1cccc(C)c1NC1=NCCCS1  activity change, negative = inhibition           -11.5
13           C[C@](N)(Cc1ccc(O)c(O)c1)C(=O)O  activity change, negative = inhibition           -1.67
14  CN(Cc1cnc2nc(N)nc(N)c2n1)c1ccc(C(=O)N[C@@H](CCC(=O)O)C(=O)O)cc1  activity change, negative = inhibition           -94.2
15  CCC1C(=O)OCC1Cc1cncn1C (centres undefined)  activity change, negative = inhibition            2.21
16  COc1cc2c(cc1OC)C(=O)C(CC1CCN(Cc3ccccc3)CC1)C2 (centres undefined)  activity change, negative = inhibition           -29.7
17                                  NC(=O)NO  activity change, negative = inhibition           -10.4
18  CC(C)NCC(O)c1ccc(O)c(O)c1 (centres undefined)  activity change, negative = inhibition           -10.8
19  O=c1[nH]c2ccccc2n1CCCN1CCC(n2c(=O)[nH]c3cc(Cl)ccc32)CC1  activity change, negative = inhibition           -22.6
20  C=C(c1ccc(C(=O)O)cc1)c1cc2c(cc1C)C(C)(C)CCC2(C)C  activity change, negative = inhibition           -6.82
21  CN(CCOc1ccc(CC2SC(=O)NC2=O)cc1)c1ccccn1 (centres undefined)  activity change, negative = inhibition           -30.2
22      CN(C/C=C/C#CC(C)(C)C)Cc1cccc2ccccc12  activity change, negative = inhibition           -3.95
23                       NCC1(CC(=O)O)CCCCC1  activity change, negative = inhibition            1.13
24  CC(C)[N+](C)(CCOC(=O)C1c2ccccc2Oc2ccccc21)C(C)C  activity change, negative = inhibition            2.34
25  CC(C(=O)O)c1cccc(C(=O)c2ccccc2)c1 (centres undefined)  activity change, negative = inhibition           -2.03
26  COC[C@H]1OC(=O)c2coc3c2[C@@]1(C)C1=C(C3=O)C2CCC(=O)[C@@]2(C)C[C@H]1OC(C)=O (some centres undefined)  activity change, negative = inhibition            3.38
27               CN(C)c1nc(N(C)C)nc(N(C)C)n1  activity change, negative = inhibition           -16.8
28  CCCC(=O)Nc1ccc(OCC(O)CNC(C)C)c(C(C)=O)c1 (centres undefined)  activity change, negative = inhibition            4.12
29  CCOC(=O)[C@H](CCc1ccccc1)N[C@@H](C)C(=O)N1Cc2cc(OC)c(OC)cc2C[C@H]1C(=O)O  activity change, negative = inhibition           -29.2
30                    Oc1ccc(Cl)cc1Cc1ccccc1  activity change, negative = inhibition           -21.8
31  COC(=O)[C@@H]1CC2=CC(=O)CC[C@]2(C)[C@@]23O[C@@H]2C[C@@]2(C)[C@@H](CC[C@@]24CCC(=O)O4)[C@H]13  activity change, negative = inhibition           -17.3
32               NC(=O)OCC(COC(N)=O)c1ccccc1  activity change, negative = inhibition           -1.23
33  O=c1n(CCCN2CCN(c3cccc(Cl)c3)CC2)nc2ccccn12  activity change, negative = inhibition           -23.8
34  COc1cc([C@@H]2c3cc4c(cc3[C@H](O)[C@H]3COC(=O)[C@H]23)OCO4)cc(OC)c1OC  activity change, negative = inhibition           -79.7
35  Cc1cnc(C(=O)NCCc2ccc(S(=O)(=O)NC(=O)NC3CCCCC3)cc2)cn1  activity change, negative = inhibition            3.67
36                               Cc1cn[nH]c1  activity change, negative = inhibition             4.3
37  COc1cc2nc(N3CCN(C(=O)C4CCCO4)CC3)nc(N)c2cc1OC (centres undefined)  activity change, negative = inhibition           -6.28
38       CC(C)NC[C@@H](O)COc1ccc(CC(N)=O)cc1  activity change, negative = inhibition           -29.4
39  COC(=O)[C@H]1[C@H]2C[C@@H]3c4[nH]c5cc(OC)ccc5c4CCN3C[C@H]2C[C@@H](OC(=O)c2cc(OC)c(OC)c(OC)c2)[C@@H]1OC  activity change, negative = inhibition           -18.9
40  CNC(=O)c1ccc(N2C(=S)N(c3ccc(C#N)c(C(F)(F)F)c3)C(=O)C23CCC3)cc1F  activity change, negative = inhibition           -17.3
41  COc1cc(NC(C)CCCN)c2ncccc2c1 (centres undefined)  activity change, negative = inhibition            2.06
42      Cc1ccc(S(=O)(=O)NC(=O)NN2CCCCCC2)cc1  activity change, negative = inhibition            2.93
